tested_system: human M4 muscarinic acetylcholine receptor (Homo sapiens)
Sequence (P08173 1-479): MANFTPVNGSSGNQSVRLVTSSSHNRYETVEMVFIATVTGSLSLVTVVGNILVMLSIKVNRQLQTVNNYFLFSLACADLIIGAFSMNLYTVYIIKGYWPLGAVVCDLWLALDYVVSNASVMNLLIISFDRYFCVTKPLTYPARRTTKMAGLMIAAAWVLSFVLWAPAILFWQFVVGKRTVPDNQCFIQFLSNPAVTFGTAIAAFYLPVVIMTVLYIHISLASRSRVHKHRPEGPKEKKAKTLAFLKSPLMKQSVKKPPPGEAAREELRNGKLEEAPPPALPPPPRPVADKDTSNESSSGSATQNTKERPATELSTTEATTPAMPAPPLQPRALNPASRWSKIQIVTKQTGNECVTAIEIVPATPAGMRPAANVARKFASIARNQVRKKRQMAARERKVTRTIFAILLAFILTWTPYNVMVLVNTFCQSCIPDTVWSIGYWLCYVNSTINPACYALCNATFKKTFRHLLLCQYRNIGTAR
experiment_description: human FLIPR-based M4 PAM assay, CHO-K1 cells stably transfected with human M4 receptor and chimeric G-protein Gαqi5
assay_setup: inflection point (IP) of dose response curve; acetylcholine added at 20% of maximum response; CHO-K1 human M4/Gαqi5, FLIPR Tetra
property_label: pEC50
Kindly note that pEC50 refers to -log10 of the concentration in mol/L and answer with the value alone.

Which pEC50 is reported for this compound? Cc1cc(C(=O)NC2C3CC2C3)nnc1N1CCC(Oc2ccc3c(c2)OCCO3)CC1 (stereo not drawn) [Example 131] 6.90

Which pEC50 is reported for this compound? Cc1c(Cl)nc(CO)nc1N1CCC(Oc2ccc(S(C)(=O)=O)cc2)CC1 [Example 8] 5.86

Which pEC50 is reported for this compound? COc1ccc(OC2CCN(c3nnc(C(=O)NCc4ccncc4C)cc3C)CC2)cn1 [Example 121] 7.00

Which pEC50 is reported for this compound? COc1ccc(OC2CCN(c3nc(SC)nc(Cl)c3C)CC2)cn1 [Example 82] 6.41

Which pEC50 is reported for this compound? CCOC(=O)c1cc(C)c(N2CCC(Oc3cccc(C#N)c3)CC2)nn1 [Example 105] 7.24

Which pEC50 is reported for this compound? COc1ccc(OC2CCN(c3nc(C(=O)NC4CNC4)nc(Cl)c3C)CC2)cn1 [Example 215] 6.08

Which pEC50 is reported for this compound? COc1ccc(OC2CCN(c3nnc(C(=O)NCc4ccnnc4)cc3C)CC2)cn1 [Example 139] 6.75

Which pEC50 is reported for this compound? Cc1cc(C(=O)NCc2ccncc2)nnc1N1CCC(Oc2cccc(C#N)c2)CC1 [Example 106] 7.48

Which pEC50 is reported for this compound? Cc1cc(C(=O)NCc2ccncc2)nnc1N1CCC(Oc2cccc(C#N)c2)CC1 [Example 204A] 7.00

---

tested_system: human M4 muscarinic acetylcholine receptor (Homo sapiens, UniProt P08173)
experiment_description: human FLIPR-based M4 PAM assay, CHO-K1 cells stably transfected with human M4 receptor and chimeric G-protein Gαqi5
assay_setup: inflection point (IP) of dose response curve; acetylcholine added at 20% of maximum response; CHO-K1 human M4/Gαqi5, FLIPR Tetra
Procedure: In a typical experiment the M4 muscarinic acetylcholine receptor modulating activity of the compounds of the present invention was determined in accordance with the following experimental method. […] Following dye loading the cell plates are placed in a FLIPR Tetra instrument and while monitoring dye fluorescence (excitation […]), 10 uL of test substance at increasing concentrations is added, and fluorescence values are recorded for 4 min. […]
property_label: pEC50
Kindly note that pEC50 refers to -log10 of the concentration in mol/L and answer with the value alone.

Which pEC50 is reported for this molecule? Cc1c(Cl)nc(CO)nc1N1CCC(Oc2ccc3c(c2)C(=O)NC3)CC1 [Example 98] 6.74

Which pEC50 is reported for this molecule? COc1ccc(OC2CCN(c3nnc(C(=O)NCCc4ccccc4Cl)cc3C)CC2)cn1 [Example 197] 7.04

Which pEC50 is reported for this molecule? COc1ccc(OC2CCN(c3nnc(C(=O)N[C@@H]4CCc5ccccc54)cc3C)CC2)cn1 [Example 179] 6.10

Which pEC50 is reported for this molecule? Cc1cc(C(=O)NCc2ccncc2)nnc1N1CCC(OCC2CC2)CC1 [Example 152] 6.59

Data provenance is patent US11319298B2.
